System: heterozygous GAT-HRA corn
Experiment Notes: Postemergence effect of ALS herbicides, glyphosate and glufosinate (fresh weight, visual injury)
Condition Details: 200 g/ha (glyphosate 3472 g ae/ha, glufosinate ammonium 1870 g/ha), 2 weeks after treatment, 0% no injury, 100% plant death, mean of four replications
Measured Quantity: % Visual Injury Heterozygous GAT-HRA (%)
Give the value in % but do not write % after it.

[
  {
    "Molecule": "CCS(=O)(=O)c1nc2ccccn2c1S(=O)(=O)NC(=O)Nc1nc(OC)cc(OC)n1",
    "% Visual Injury Heterozygous GAT-HRA, %": 3
  },
  {
    "Molecule": "COC(=O)c1ccccc1S(=O)(=O)NC(=O)Nc1nc(C)nc(OC)n1",
    "% Visual Injury Heterozygous GAT-HRA, %": 14
  },
  {
    "Molecule": "COC(=O)c1ccccc1S(=O)(=O)NC(=O)Nc1nc(C)cc(C)n1",
    "% Visual Injury Heterozygous GAT-HRA, %": 2
  },
  {
    "Molecule": "COC(=O)c1sccc1S(=O)(=O)NC(=O)Nc1nc(C)nc(OC)n1",
    "% Visual Injury Heterozygous GAT-HRA, %": 10
  },
  {
    "Molecule": "Cc1ccn2nc(S(=O)(=O)Nc3c(F)cccc3F)nc2n1",
    "% Visual Injury Heterozygous GAT-HRA, %": 3
  }
]

Inquiry: May I ask what % Visual Injury Heterozygous GAT-HRA has been recorded for "COc1cc(OC)nc(NC(=O)NS(=O)(=O)c2cc(NC=O)ccc2C(=O)N(C)C)n1" ?
Reply text: 8

Inquiry: May I ask what % Visual Injury Heterozygous GAT-HRA has been recorded for "CCOc1nc(NC)nc(NC(=O)NS(=O)(=O)c2ccccc2C(=O)OC)n1" ?
Reply text: 6

Inquiry: May I ask what % Visual Injury Heterozygous GAT-HRA has been recorded for "CCCOc1nn(C(=O)NS(=O)(=O)c2ccccc2C(=O)OC)c(=O)n1C" ?
Reply text: 9

Inquiry: May I ask what % Visual Injury Heterozygous GAT-HRA has been recorded for "CO/N=C(/C)c1cccc(Oc2nc(OC)cc(OC)n2)c1C(=O)OC" ?
Reply text: 4

Inquiry: May I ask what % Visual Injury Heterozygous GAT-HRA has been recorded for CCc1cnc(C2=NC(C)(C(C)C)C(=O)N2)c(C(=O)O)c1 (stereo not drawn) ?
Reply text: 9
